Field: Ki. Provide a value for each of the compounds that follow.
system: Human NPY Y1 receptors (Homo sapiens, UniProt P25929)
Construct: expressed in transfected cells; host or cells: CHO cells (membrane protein)
Sequence (P25929 whole entry): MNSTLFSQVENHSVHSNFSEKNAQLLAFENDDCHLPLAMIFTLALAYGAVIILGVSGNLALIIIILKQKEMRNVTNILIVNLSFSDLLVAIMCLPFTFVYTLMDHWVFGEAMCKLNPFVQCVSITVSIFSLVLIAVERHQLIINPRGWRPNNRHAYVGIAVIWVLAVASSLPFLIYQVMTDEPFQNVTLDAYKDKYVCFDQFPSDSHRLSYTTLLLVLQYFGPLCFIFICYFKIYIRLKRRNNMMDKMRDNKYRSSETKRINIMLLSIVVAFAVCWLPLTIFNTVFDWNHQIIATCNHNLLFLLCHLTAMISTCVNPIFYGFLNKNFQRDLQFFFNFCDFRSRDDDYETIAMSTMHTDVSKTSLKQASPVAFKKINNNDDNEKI
protocol: NPY Receptor Binding Assay
condition_details: Procedure E compounds, rated A/B/C
Method: NPY Receptor Binding Assay Human NPY Y1 receptors were expressed in CHO cells. Binding assays were performed in 50 mM HEPES, pH 7.2, 2.5 mM CaCl2, 1 mM MgCl2 and 0.1% BSA containing 5-10 μg of membrane protein and 0.1 nM […] in a total volume of 200 μl. Non-specific binding was determined in the presence of 1 μM NPY. […] The filters were washed with phosphate-buffered saline, and radioactivity was measured in a Packard TopCount scintillation counter.

The recorded Ki for `Cc1ccc2nc(NCCc3ccc(/N=C4/N[C@@H](Cc5c[nH]cn5)CS4)cc3)sc2c1` is 1 to 10 µM

The recorded Ki for Clc1cccc(C2CCSC(Nc3ccc(CCNc4nc5ccccc5s4)cc3)=N2)c1 (centres unmarked) is < 1 µM

The recorded Ki for Cc1cccc2sc(NCCc3ccc(/N=C4/NCC(C)S4)cc3)nc12 (centres unmarked) is > 10 µM

The recorded Ki for CCCCC1CS/C(=N\c2ccc(CCNc3nc4ccc(S(C)(=O)=O)cc4s3)cc2)N1 (centres unmarked) is 1 to 10 µM

The recorded Ki for `Clc1ccc2nc(NCCc3ccc(/N=C4/N[C@@H](Cc5c[nH]cn5)CS4)cc3)sc2c1` is 1 to 10 µM

The recorded Ki for Fc1ccc2nc(NCCc3ccc(/N=C4/N[C@H]5c6ccccc6CC5S4)cc3)sc2c1 (some centres unmarked) is < 1 µM

The recorded Ki for CC1CN/C(=N/c2ccc(CCNc3nc4ccc(S(C)(=O)=O)cc4s3)cc2)S1 (centres unmarked) is > 10 µM

The recorded Ki for CC1CN/C(=N/c2ccc(CCNc3nc4ccc(F)cc4s3)cc2)S1 (centres unmarked) is > 10 µM

The recorded Ki for Cc1cccc2sc(NCCc3ccc(/N=C4/NCC(c5ccccc5)S4)cc3)nc12 (centres unmarked) is > 10 µM

The recorded Ki for `Cc1ccc2nc(NCCc3ccc(/N=C4\SC[C@@H]5CCCN45)cc3)sc2c1` is > 10 µM

The recorded Ki for `C[C@@H]1CS/C(=N\c2ccc(CCNc3nc4ccccc4s3)cc2)N1` is < 1 µM

The recorded Ki for COc1cccc2sc(NCCc3ccc(/N=C4\SC5Cc6ccccc6[C@@H]5N4C)cc3)nc12 (some centres unmarked) is > 10 µM

The recorded Ki for CS(=O)(=O)c1ccc2nc(NCCc3ccc(/N=C4/NC(c5ccccc5)CCS4)cc3)sc2c1 (centres unmarked) is 1 to 10 µM

The recorded Ki for `CC(C)[C@H]1CS/C(=N\c2ccc(CCNc3nc4ccc(Cl)cc4s3)cc2)N1` is 1 to 10 µM

The recorded Ki for CC1CN/C(=N/c2ccc(CCNc3nc4cc(Cl)c(Cl)cc4s3)cc2)S1 (centres unmarked) is > 10 µM

The recorded Ki for O=[N+]([O-])c1ccc2nc(NCCc3ccc(/N=C4/NC(c5ccccc5)CCS4)cc3)sc2c1 (centres unmarked) is > 10 µM

The recorded Ki for `Cc1cccc2sc(NCCc3ccc(/N=C4/NCCCS4)cc3)nc12` is > 10 µM
